Known GI50 of a selection of compounds
Tested on: UACC-257
PROTOCOL DETAILS: NCI tumour cell line growth inhibition, 48 h
Activity calls are given as the source filed them. Rule as the data show it: active = GI50 up to about 1.1 µM and inactive = higher.
ATTRIBUTE MEASURED: GI50

| COMPOUND | SUBJECT OF TEST | RESULT VALUE |
| --- | --- | --- |
| O=C(O)c1ccc(S(=O)(=O)c2ccccc2[N+](=O)[O-])cc1 | UACC-257 | > 10 µM (inactive) |
| O=c1[nH]cc(NCCCl)c(=O)[nH]1 | UACC-257 | > 100 µM (inactive) |
| Cc1nc2ccccc2c(=O)n1-c1ccccc1F | UACC-257 | > 100 µM (inactive) |
| CCCCCCCCCCCCCCCCOCC(O)CO (stereo not drawn) | UACC-257 | 19.1 µM (inactive) |
| CCCCCCCCCCCCC(O)C1CCC(C(O)CCCCC(O)CCCCCC2CC(CC(C)=O)C(=O)O2)O1 (stereo not drawn) | UACC-257 | 0.0204 µM (active) |
| COc1ccc(NC(=O)CC(=O)n2nc(C)c(/N=N/c3ccccc3C(=O)O)c2C)cc1 | UACC-257 | > 100 µM (inactive) |
| CC(=O)O[C@H]1C[C@H](O[C@H]2[C@@H](O)C[C@H](O[C@H]3[C@@H](O)C[C@H](O[C@H]4CC[C@@]5(C)[C@H](CC[C@@H]6[C@@H]5CC[C@]5(C)[C@@H](C7=CC(=O)OC7)CC[C@]65O)C4)O[C@@H]3C)O[C@@H]2C)O[C@H](C)[C@H]1O[C@@H]1O[C@H](CO)[C@@H](O)[C@H](O)[C@H]1O | UACC-257 | 0.0726 µM (active) |
| Cc1ccccc1N/C(N)=N/C#N | UACC-257 | > 100 µM (inactive) |
| O=C(O)c1nn(-c2ccccc2)nc1-c1nn(-c2ccccc2)nc1C(=O)O | UACC-257 | > 100 µM (inactive) |
| COc1cccc2c1C(=O)c1c(O)c3c(c(O)c1C2=O)C[C@@](O)(C(=O)CO)C[C@@H]3OC1CC(N)CC(C)O1 (stereo partly drawn) | UACC-257 | 0.051 µM (active) |
| CC1CC[C@@]2(OC1)OC1C[C@H]3[C@@H]4CC[C@H]5CC(OC6OC(CO)C(OC7OC(CO)C(O)C(O)C7OC7OC(CO)C(O)C(O)C7O)C(O)C6O)CCC5(C)[C@H]4CCC3(C)C1[C@@H]2C (stereo partly drawn) | UACC-257 | 4.31 µM (inactive) |
| CC1C/C(=C\c2ccc(O)c(O)c2)C(=O)/C(=C/c2ccc(O)c(O)c2)C1 (stereo not drawn) | UACC-257 | 14.5 µM (inactive) |
| Nc1nc2c(ncn2C2OC(CO)C(O)C2O)c(=O)o1 (stereo not drawn) | UACC-257 | > 100 µM (inactive) |
| COc1cc(C)c2c(=O)c3ccccc3n(C)c2c1 | UACC-257 | 30.3 µM (inactive) |
| COc1ccc2c(c1)[n+]([O-])c(C(=O)C/C(=N/NC(=O)C[N+](C)(C)C)C(=O)Nc1cccc(C)c1C)c(C)[n+]2[O-] | UACC-257 | 28.6 µM (inactive) |
| CC1(C)N=C(C2CCCN2C(=O)OCc2ccccc2)OC1=O (stereo not drawn) | UACC-257 | > 100 µM (inactive) |
| Sc1nnc(-c2cccnc2)[nH]1 | UACC-257 | > 100 µM (inactive) |
| CCCCSCC(NC(=O)/C=C/c1c(C)[nH]c(=O)[nH]c1=O)C(=O)OC (stereo not drawn) | UACC-257 | 81.7 µM (inactive) |
